The values you see were collected from ChEMBL document CHEMBL1201862.

# Tested on: MOLT-4
# assayProtocol: NCI tumour cell line growth inhibition, 48 h
The source made the active and inactive calls. Cut-off read from the data, not from the text of the source: active = GI50 up to about 1.1 µM and inactive = higher. Square brackets hold non-standard residues; d marks the D form. Peptide text beside a SMILES is read from it. 2Nal = N[CH](Cc1ccc2ccccc2c1)C(=O)O
Possible outcomes: active, inactive

[
  {
    "molecule": "c1ccc(-c2cc3[nH]c4ccccc4[nH]c-3cc(-c3ccccc3)nn2)cc1",
    "assayedSystem": "MOLT-4",
    "qualitativeLabel": "inactive"
  },
  {
    "molecule": "CC(C)[C@H](COC(C)(C)C)/N=C/N1CSc2ccccc21",
    "assayedSystem": "MOLT-4",
    "qualitativeLabel": "inactive"
  },
  {
    "molecule": "Cc1cc(C)n(C(=CC(=O)C(Cl)Cl)n2nc(C)cc2C)n1",
    "assayedSystem": "MOLT-4",
    "qualitativeLabel": "active"
  },
  {
    "molecule": "COC(=O)C1Cc2cccc(C)c2C1 (centres undefined)",
    "assayedSystem": "MOLT-4",
    "qualitativeLabel": "inactive"
  },
  {
    "molecule": "C=CCN(C(C)=O)c1cc(OCc2ccccc2)c2c(c1)c(C)cn2S(=O)(=O)c1ccccc1",
    "assayedSystem": "MOLT-4",
    "qualitativeLabel": "inactive"
  },
  {
    "molecule": "CCc1nnc(-c2nsc3ccccc23)s1",
    "assayedSystem": "MOLT-4",
    "qualitativeLabel": "inactive"
  },
  {
    "molecule": "Cc1cc(NS(=O)(=O)c2ccc(Nc3c4ccccc4nc4ccc(C(=O)Nc5ccc(S(=O)(=O)N=C(N)N)cc5)cc34)cc2)no1",
    "assayedSystem": "MOLT-4",
    "qualitativeLabel": "inactive"
  },
  {
    "molecule": "O=C1Nc2ccccc2N=CC1NC(=O)C(c1ccccc1)c1ccccc1 (centres undefined)",
    "assayedSystem": "MOLT-4",
    "qualitativeLabel": "inactive"
  },
  {
    "molecule": "Cc1ccc(NC(=O)NC23CC4CC(CC(F)(C4)C2)C3)cc1",
    "assayedSystem": "MOLT-4",
    "qualitativeLabel": "inactive"
  },
  {
    "molecule": "CC(C)C(NC(=O)C(CCCCN)NC(=O)C(Cc1c[nH]c2ccccc12)NC(=O)C(Cc1ccc(O)cc1)NC(=O)C(CS)NC(=O)C(N)Cc1ccc2ccccc2c1)C(=O)NC(CS)C(=O)NC(C(N)=O)C(C)O (centres undefined) (H-[2Nal]CYWKVCT-NH2; configuration not given here)",
    "assayedSystem": "MOLT-4",
    "qualitativeLabel": "inactive"
  },
  {
    "molecule": "Cc1cc2nc(N3C(=O)/C(=C/c4ccc(Oc5ccccc5)cc4)N=C3c3ccccc3)sc2cc1C",
    "assayedSystem": "MOLT-4",
    "qualitativeLabel": "inactive"
  },
  {
    "molecule": "O=C(O)c1cc([N+](=O)[O-])cc2c(=O)c3cnccc3[nH]c12",
    "assayedSystem": "MOLT-4",
    "qualitativeLabel": "inactive"
  },
  {
    "molecule": "COc1cc(C2C(Cl)C(=O)N2NC(=O)Cc2ccccc2)ccc1O (centres undefined)",
    "assayedSystem": "MOLT-4",
    "qualitativeLabel": "inactive"
  },
  {
    "molecule": "Nc1ncc(Cc2ccc3c(c2)OCO3)c(N)n1",
    "assayedSystem": "MOLT-4",
    "qualitativeLabel": "inactive"
  },
  {
    "molecule": "COC1(OC)c2occc2C(=N)c2ccc(=O)oc21",
    "assayedSystem": "MOLT-4",
    "qualitativeLabel": "inactive"
  },
  {
    "molecule": "CCO/C=N/C1=C(C#N)C(c2ccc(OC)c(OC)c2)c2c(-c3ccccc3)nn(-c3ccccc3)c2O1 (centres undefined)",
    "assayedSystem": "MOLT-4",
    "qualitativeLabel": "inactive"
  },
  {
    "molecule": "CC(=O)O[C@H]1CC[C@@]2(C)C(=CC[C@H]3[C@@H]4C[C@H](N5CCCC5)[C@H](OC(C)=O)[C@@]4(C)CC[C@@H]32)C1",
    "assayedSystem": "MOLT-4",
    "qualitativeLabel": "inactive"
  },
  {
    "molecule": "CC(C)=CCc1c(O)cc(O)c2c1OC(c1ccc(O)cc1)C(O)C2=O (centres undefined)",
    "assayedSystem": "MOLT-4",
    "qualitativeLabel": "inactive"
  },
  {
    "molecule": "CC1(C)OC(=O)N(c2ccccc2)C12C=Cc1cccc([N+](=O)[O-])c1O2 (centres undefined)",
    "assayedSystem": "MOLT-4",
    "qualitativeLabel": "inactive"
  }
]

###

# Test system: Malme-3M
# assayProtocol: NCI tumour cell line growth inhibition, 48 h
Activity calls are given as the source filed them. No stated cut-off is given here; in the data, active = GI50 up to about 1.1 µM and inactive = higher.
testReadout: GI50

[
  {
    "compound": "CN(C)CC(C)(C)CN1c2ccccc2Sc2ccccc21",
    "result": "14.8 µM (inactive)"
  },
  {
    "compound": "S=C1Cc2c(-c3ccccc3)cc(-c3ccc(Cl)cc3)nc2-c2ccccc2N1",
    "result": "3.33 µM (inactive)"
  },
  {
    "compound": "Nn1c(SCC(=O)NCc2ccccc2)nc2ccccc2c1=O",
    "result": "51.2 µM (inactive)"
  },
  {
    "compound": "O/N=C1/CC2(N3CCOCC3)C3CC/C(=N\\O)C2CC1(Cc1ccccc1)C3 (configuration not stated)",
    "result": "> 100 µM (inactive)"
  },
  {
    "compound": "CCOc1ccc(NC(=O)/C(=N\\NC(C)(C)C)C2C(=O)Nc3ccccc3[S+]2[O-])cc1 (configuration not stated)",
    "result": "> 100 µM (inactive)"
  },
  {
    "compound": "CCn1c(=O)c2nc(SC)sc2n(-c2ccccc2)c1=O",
    "result": "> 100 µM (inactive)"
  },
  {
    "compound": "CN(C)c1nc2n(CCO)ccnc-2c(=O)n1",
    "result": "> 100 µM (inactive)"
  },
  {
    "compound": "CC12CCC(=O)C[C@H]1CCC(OC=O)C2Br (some centres not stated)",
    "result": "> 100 µM (inactive)"
  },
  {
    "compound": "CC(=O)Nc1c(Nc2ccccc2)[nH]c(C)nc1=S",
    "result": "> 100 µM (inactive)"
  },
  {
    "compound": "O=C[C@@H](CO)O[C@H](C=O)n1cnc2c(=O)nc[nH]c21",
    "result": "301 µM (inactive)"
  },
  {
    "compound": "Cc1c(C)n(-c2ccccc2)c2nc(S(C)(=O)=O)nc(S(C)(=O)=O)c12",
    "result": "1.4 µM (inactive)"
  },
  {
    "compound": "COc1ccc(/C=N/N=C(\\N)NO)c(Cl)c1O",
    "result": "28.4 µM (inactive)"
  },
  {
    "compound": "Oc1ccc(-c2cc(-c3cc(-c4ccc(O)cc4)no3)on2)cc1",
    "result": "46.1 µM (inactive)"
  },
  {
    "compound": "c1csc(-c2nccc3c2[nH]c2ccccc23)c1",
    "result": "24.2 µM (inactive)"
  },
  {
    "compound": "COc1ccc(C2=Cc3nc2c(-c2ccccc2)c2ccc([nH]2)c(-c2ccccc2)c2nc(c(-c4ccccc4)c4ccc([nH]4)c3-c3ccccc3)C=C2)cc1",
    "result": "> 100 µM (inactive)"
  },
  {
    "compound": "N#CC1(C=O)c2ccccc2C=CN1C(=O)c1ccccc1 (configuration not stated)",
    "result": "30.6 µM (inactive)"
  },
  {
    "compound": "O=c1c2c3ccccc3[nH]c2c2cccc3c2n1CCC3",
    "result": "22 µM (inactive)"
  },
  {
    "compound": "C=CCc1[nH]c2c(OCc3ccccc3)cc(N(CC=C)C(C)=O)cc2c1C",
    "result": "16.4 µM (inactive)"
  },
  {
    "compound": "COc1cc(/C=N/NC(=O)c2c(Cl)c(Cl)c(Cl)c(Cl)c2-c2nc3cc(C(=O)c4ccccc4)ccc3[nH]2)ccc1O",
    "result": "54.8 µM (inactive)"
  },
  {
    "compound": "CC(=O)OC1CC2OC(Cc3ccccc32)O1 (configuration not stated)",
    "result": "27.6 µM (inactive)"
  },
  {
    "compound": "Cn1c([C@H](C#N)C(=O)c2cc(O)ccc2[N+](=O)[O-])nc2ccccc21",
    "result": "17.2 µM (inactive)"
  },
  {
    "compound": "CC1=NN=C(N)N/C1=C/C(Sc1ccc(Cl)cc1)c1cccs1 (configuration not stated)",
    "result": "13.1 µM (inactive)"
  }
]
